- method.description: yeast display, Sf9 membrane polyspecificity reagent, FACS + sequencing; frameworks hold sequencing errors

{"item.sequence": "QVQLVESGGGLVQAGGSLRLSCAASGYIVDRNAMGWYRQAPGKERELVAAITKRGGITYYADSVKGRFTISRDNAKNTVYLQMNSLKPEDTAVYYCNALARSSRYDYWGQGTQVTVSS", "polyreactivity (PSR sort gate)": "low polyreactivity"}
{"item.sequence": "QVQLVESGGGLVQAGGSLRLSCAASGRTCPYYVMGWFRQAPGKERELVAAIRRTGGSTYYADSVKGRFTISRDNAKNTVYLQMNSLKPEDTAVYYFTKSHSILYEGGYDYWGQGTQVTVSS", "polyreactivity (PSR sort gate)": "low polyreactivity"}
{"item.sequence": "QVQLVESGGGLVQAGGSLRLSCAASGSTFEYNSMGWYRQAPGKERELVGSSTNYADSVKGRFTISRDNAKNTVYLQMNSLLPEYTAVYYCAREQGVNRNHDYWGQGTQVTVSS", "polyreactivity (PSR sort gate)": "low polyreactivity"}
{"item.sequence": "QVQLVESGGGLVQAGGSLRLSCAASGFIFRYYAMGWYRQAPGKERELVAAISSGGGTYYADSVKGRFTISRDNAKNTVYLQMNSLKPEDTAVYYCNKASTSYYRFNYWGQGTQVTVSS", "polyreactivity (PSR sort gate)": "high polyreactivity"}
{"item.sequence": "QVQLVESGGGLVQAGGSLRLSCAASGFIFQKYAMGWYRQAPGKERELVAAISRSGGSTYYADSVKGRFTISRDNAKNTDYLQMNSLKPEDTAVYYCAARYKGRAFWMDYWGQGTQVTVSS", "polyreactivity (PSR sort gate)": "high polyreactivity"}
{"item.sequence": "QVQRVESGGGLVQAGGSLRLSCAASGSTLGYYTMGWYRQAPGKERELVAAIDWSGGSTYYADSVKGRFTISRDNAKNTGYLQMNSLKPEDTAVYYCNAEPWDPFYSPGRGGMDYWGQGTQVTVSS", "polyreactivity (PSR sort gate)": "low polyreactivity"}
{"item.sequence": "QVQLVESGGGLAQAGGSLRLSCAASGRTFRTYTMGWYRQAPGKERELVAAISWSGSSTYYADSVKGRFTISRDNAKNTVYLQMNSLKPEDTAVYYCAARGLYDYGYWGQGTQVTVSS", "polyreactivity (PSR sort gate)": "high polyreactivity"}
{"item.sequence": "HVQLQESGGGLLQAGGSLRLSCAASGSIFQATYMGWYRQATGKEREFVASITYGSITNYADSVKGRFTIGRDNAKDTLYLQMNSLKPEFTAVYYCAVARHYIPAFHYWGQGTQVTVSS", "polyreactivity (PSR sort gate)": "low polyreactivity"}
{"item.sequence": "QVQLVESGGGLVQAGGSLRLSCAASGGIFSYNAMGWYIQAPGKERELVATISYSGGSTFYADSVKGRFTISRHNAKNTVYFQMNSLKPEDTAVYYCARPSYTSGYQSYDYWGQGTQVTVSS", "polyreactivity (PSR sort gate)": "low polyreactivity"}
{"item.sequence": "QFQLVESGGALVQAGGSLRLSCAASGSTFTGYTMGWYRQAPGKERELVAAINWSGGRTYYADSVKGRFTISRDNAKNTVYLQMNSLKPDDTAVYYCAVRSRSLGGYLGQGTQVTVSS", "polyreactivity (PSR sort gate)": "high polyreactivity"}
{"item.sequence": "QVQLVESGGGLVQAGGSLRLSCAASGFIFYPYAMGWYRQAPGKERELVASIYSGGRTYYADSVKGRFTISRDNAKNTVYLQMNSLKPEDTAVYYCNARSRYFGYDYWGQGTQVTVSS", "polyreactivity (PSR sort gate)": "high polyreactivity"}
